# Measured on: Mitogen-activated protein kinase 3 (Homo sapiens) (UniProt P27361)
# Sequence (P27361 whole entry): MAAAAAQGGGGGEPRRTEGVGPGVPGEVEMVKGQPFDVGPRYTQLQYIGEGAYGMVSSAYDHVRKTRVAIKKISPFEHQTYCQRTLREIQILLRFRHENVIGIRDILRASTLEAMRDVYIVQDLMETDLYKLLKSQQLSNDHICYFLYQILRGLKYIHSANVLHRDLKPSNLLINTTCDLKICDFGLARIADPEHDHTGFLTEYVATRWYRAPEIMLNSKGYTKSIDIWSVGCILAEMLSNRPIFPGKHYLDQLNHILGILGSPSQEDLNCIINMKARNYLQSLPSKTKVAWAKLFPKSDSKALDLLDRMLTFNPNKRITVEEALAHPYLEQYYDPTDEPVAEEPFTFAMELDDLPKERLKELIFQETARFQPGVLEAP
# Procedure details: Inhibition of ERK1 (unknown origin) at 1 uM by Z'-Lyte assay relative to control
Quantity measured: inhibition (%)

Some molecules with known inhibition results, for comparison:
| Sample smiles | inhibition, % |
| --- | --- |
| Cc1ccc(C(=O)Nc2sc3c(c2C(N)=O)CCN(C(=S)Nc2cc(C(F)(F)F)cc(C(F)(F)F)c2)C3)cc1 | 77.4 |
| NC(=O)c1c(NC(=O)c2ccc[nH]2)sc2c1CCN(C(=S)Nc1cccnc1)C2 | 74.4 |
| NC(=O)c1c(NC(=O)c2ccccc2Br)sc2c1CCN(C(=S)Nc1ccccc1Cl)C2 | 87.7 |

(1) NC(=O)c1c(NC(=O)c2ccc(C(F)(F)F)cc2)sc2c1CCN(Cc1ccccc1F)C2
(2) NC(=O)c1c(NC(=O)c2ccc(C(F)(F)F)cc2)sc2c1CCN(Cc1ccc(Cl)cc1Cl)C2
Q. Choose between 1 and 2 : whose measured inhibition value is numerically larger? When you have decided, please share the label of that item.
A. 1

(P) NC(=O)c1c(NC(=O)c2ccccc2Cl)sc2c1CCN(C(=S)Nc1ccccc1Cl)C2
(Q) NC(=O)c1c(NC(=O)c2ccccc2Cl)sc2c1CCN(Cc1cc(Cl)cc(Cl)c1)C2
Q. Choose between P and Q : whose measured inhibition value is numerically larger? When you have decided, please share the label of that item.
A. P

====

# Measured on: Mitogen-activated protein kinase 1 (Homo sapiens)
# Procedure details: Inhibition of ERK2 (unknown origin) at 1 uM by Z'-Lyte assay relative to control
Quantity measured: inhibition (%)

| Sample smiles | Quantity measured | Meas value |
| --- | --- | --- |
| Cc1ccc(C(=O)Nc2sc3c(c2C(N)=O)CCN(C(=S)Nc2cc(C(F)(F)F)cc(C(F)(F)F)c2)C3)cc1 | inhibition | 80.1 |
| NC(=O)c1c(NC(=O)c2ccccc2C(F)(F)F)sc2c1CCN(C(=S)Nc1ccccc1Br)C2 | inhibition | 85.5 |
| NC(=O)c1c(NC(=O)c2ccccc2F)sc2c1CCN(C(=S)Nc1cc(C(F)(F)F)cc(C(F)(F)F)c1)C2 | inhibition | 68.6 |
| NC(=O)c1c(NC(=O)c2ccccc2Cl)sc2c1CCN(Cc1ccc([N+](=O)[O-])cc1)C2 | inhibition | 63.1 |
| NC(=O)c1c(NC(=O)c2cccc([N+](=O)[O-])c2)sc2c1CCN(C(=O)Nc1ccccc1Cl)C2 | inhibition | 60.4 |
| NC(=O)c1c(NC(=O)c2ccccc2Cl)sc2c1CCN(C(=S)Nc1ccccc1I)C2 | inhibition | 87.3 |
| NC(=O)c1c(NC(=O)c2ccccc2Cl)sc2c1CCN(C(=S)Nc1ccccc1)C2 | inhibition | 76.5 |
| Cc1ccccc1C(=O)Nc1sc2c(c1C(N)=O)CCN(C(=S)Nc1ccccc1Br)C2 | inhibition | 65.2 |
| NC(=O)c1c(NC(=O)c2ccccc2Cl)sc2c1CCN(C(=S)Nc1c(Cl)cccc1Cl)C2 | inhibition | 90.5 |
| NC(=O)c1c(NC(=O)c2ccccc2Br)sc2c1CCN(C(=S)Nc1ccccc1Cl)C2 | inhibition | 89.7 |
| Cc1ccccc1NC(=S)N1CCc2c(sc(NC(=O)c3ccccc3Br)c2C(N)=O)C1 | inhibition | 60.8 |
| NC(=O)c1c(NC(=O)c2ccccc2Cl)sc2c1CCN(C(=S)Nc1ccccc1Br)C2 | inhibition | 86.9 |
| NC(=O)c1c(NC(=O)c2cccc([N+](=O)[O-])c2)sc2c1CCN(Cc1ccc(Cl)cc1Cl)C2 | inhibition | 65.3 |
| NC(=O)c1c(NC(=O)c2ccccc2Cl)sc2c1CCN(Cc1ccc(Cl)cc1)C2 | inhibition | 55.4 |
| Cc1ccccc1C(=O)Nc1sc2c(c1C(N)=O)CCN(C(=S)Nc1ccccc1Cl)C2 | inhibition | 65.9 |
| NC(=O)c1c(NC(=O)c2ccccc2)sc2c1CCN(C(=S)Nc1ccccc1)C2 | inhibition | 66.3 |
| NC(=O)c1c(NC(=O)c2ccccc2F)sc2c1CCN(C(=S)Nc1ccccc1Cl)C2 | inhibition | 68.6 |
| NC(=O)c1c(NC(=O)c2ccccc2I)sc2c1CCN(C(=S)Nc1ccccc1Cl)C2 | inhibition | 85.8 |
| NC(=O)c1c(NC(=O)c2ccccc2Cl)sc2c1CCN(Cc1cc(Cl)cc(Cl)c1)C2 | inhibition | 59.9 |
| NC(=O)c1c(NC(=O)c2ccc(C(F)(F)F)cc2)sc2c1CCN(Cc1ccccc1F)C2 | inhibition | 76.8 |
| CSc1ccccc1NC(=S)N1CCc2c(sc(NC(=O)c3ccccc3Cl)c2C(N)=O)C1 | inhibition | 64.6 |
